System: Caco-2
Experiment: drug sensitivity score (DSS) for viability; higher = more toxic; extreme values may be limits of the assay
Details: 72 h
value.type: drug sensitivity score
Give the value as a plain number.

Example entries begin here.
1) C=CCN1CC[C@]2(C)c3cc(O)ccc3C[C@H]1[C@H]2C; 0
2) Cn1cc(-c2ccc3nnc(Sc4ccc5ncccc5c4)n3n2)cn1; 0

Value lookup for drug sensitivity score; key = COc1ccc(C2CNC(=O)NC2)cc1O[C@H]1C[C@@H]2CC[C@H]1C2
0

What does the record list as drug sensitivity score for CO[C@H]1C[C@H](O[C@@H]2/C(C)=C/C[C@@H]3C[C@@H](C[C@]4(CC[C@H](C)[C@@H](C5CCCCC5)O4)O3)OC(=O)[C@@H]3C=C(C)/C(=N/O)[C@H]4OC/C(=C\C=C\[C@@H]2C)[C@]43O)O[C@@H](C)[C@@H]1O ?
2.5

What does the record list as drug sensitivity score for COC(=O)N[C@H](C(=O)N1CCC[C@H]1c1ncc(-c2ccc(-c3ccc(-c4cnc([C@@H]5CCCN5C(=O)[C@@H](NC(=O)OC)C(C)C)[nH]4)cc3)cc2)[nH]1)C(C)C ?
0.5

Fill in: drug sensitivity score of CC[C@H](CO)Nc1nc(NCc2ccc(-c3ccccn3)cc2)c2ncn(C(C)C)c2n1 [CR8-(R)] is ___
14.3

Consider the molecule CC(O)(C(=O)Nc1ccc(S(=O)(=O)c2ccccc2)cc1)C(F)(F)F (centres undefined) and give its measured drug sensitivity score.
0

Looking for the measured drug sensitivity score of CC(=O)OCC(=O)[C@@]1(OC(C)=O)[C@@H](C)C[C@H]2[C@@H]3C[C@H](F)C4=CC(=O)C=C[C@]4(C)[C@@]3(F)[C@@H](O)C[C@@]21C [diflorasone-diacetate] , can you help?
0.2

So what does the record say about drug sensitivity score for C1Cc2[nH]nc(-c3nn[nH]n3)c2C1 ?
0

* * *

System: Vero E6
Test: drug sensitivity score (DSS) for viability; higher = more toxic; extreme values may be limits of the assay
Conditions: 72 h
Quick reference: drug sensitivity score of the listed items.
Field format: numeric only.

The following compounds have reported results that may help.
1. CCC[C@@H]1C[C@@H](C(=O)N[C@@H]([C@H]2O[C@H](SC)[C@H](O)[C@@H](O)[C@H]2O)[C@@H](C)O)N(C)C1; 0
2. CC[C@@]1(O)C(=O)OCc2c1cc1n(c2=O)Cc2cc3cc(O)ccc3nc2-1 [10-hydroxycamptothecin]; 9.1
3. CN(C)C/C=C/C(=O)Nc1cccc(C(=O)Nc2cccc(Nc3ncc(Cl)c(-c4c[nH]c5ccccc45)n3)c2)c1; 5.9
4. CNc1cc2c(Nc3cccc(Br)c3)ncnc2cn1; 6.2

Here is another compound to look at.
Could you share which drug sensitivity score value was measured for Nc1ccn(C[C@@H](CO)OCP(=O)(O)O)c(=O)n1 ?
0

* * *

System: Caco-2
Test: cell viability relative to DMSO; higher = less toxic
Conditions: 72 h; 10000 nM
Listing of entries alongside the reported cell viability.
Your answer should be a plain number; it is taken to be in %.

Recorded results for 5 compounds are shown here.
1. CCCCn1c(=O)c2[nH]c(C34CC5CC(CC3C5)C4)nc2n(CCCO)c1=O; 91.9
2. Nc1ccn(C[C@@H](CO)OCP(=O)(O)O)c(=O)n1; 101
3. COC(=O)[C@@H](N)CS; 102
4. COc1ccc(-c2csc(NC(=O)[C@H]3CCCCN3S(=O)(=O)c3ccc(C)cc3)n2)cc1; 69.2
5. O=C(CCCN1CCC2(CC1)C(=O)NCN2c1ccccc1)c1ccc(F)cc1; 71.9

Consider the compound CNCCN(C)Cc1c[nH]nc1-c1ccc(O[C@H]2C[C@H](OCCC3CCOCC3)C2)cc1 and give its measured cell viability.
99.6

cell viability lookup needed for Cc1ccccc1C(C(=O)NC1CCCCC1)N(C(=O)Cn1ccnc1C)c1cccc(F)c1 (stereo not drawn) , thanks.
90.6

Quick check: cell viability of CCCCCCCCCCCCCCCCCCCCCC(=O)O ?
99.9

* * *

Property: cell viability; scope: individual molecules
Test system: HepG2
Assay: cell viability relative to DMSO; higher = less toxic
Details: 72 h; 10000 nM
Give just the numeric value; % need not be written.

1) Cc1cc(O)c(C(C)C)cc1Cl [chlorothymol]; 104

Please give the measured cell viability for this molecule: CCCCCCCCCCCCCCCCCCCCCC(=O)O [AGP-103]
92.7

Which cell viability is listed for Cc1cc(C)cc(OCC2CNC(=O)O2)c1 (stereo not given) [metaxalone] ?
101

Any idea what its cell viability is? The molecule is CC(=O)[C@]1(O)Cc2c(O)c3c(c(O)c2[C@@H](O[C@H]2C[C@H](N)[C@H](O)[C@H](C)O2)C1)C(=O)c1ccccc1C3=O [idarubicin]
0.1

For the molecule FC(F)(F)c1cccc(-c2noc(-c3cc(-c4ccccc4)c(C(F)(F)F)s3)n2)c1 [SEW-2871] , what cell viability is on record?
99

* * *

Tested on: Calu-3
Assay: cell viability relative to DMSO; higher = less toxic
Settings: 72 h; 1 nM
value.type: cell viability (%)
Lab book: enter the figure in %, no units written.

In the examples that follow, each entry is paired with its recorded cell viability.
1) COc1cc2c(NC3CCN(C(C)C)CC3)nc(N3CCC(F)(F)CC3)nc2cc1OCCCN1CCCC1; 93.9
2) CC(C)(C)c1cc(C=C(C#N)C#N)cc(Br)c1O; 104
3) NC(Cc1ccc(I)cc1)C(=O)O (stereo in doubt); 103
4) Nc1nc(N)nc(-c2cc(Cl)ccc2Cl)n1; 112
5) Nc1ccn(C[C@@H](CO)OCP(=O)(O)O)c(=O)n1; 93.7

Short answer please: cell viability, Calu-3, entry O=C(Nc1ccc(C(F)(F)F)cn1)N1CCN(c2ncccc2C(F)(F)F)CC1
99.3

Look up cell viability with Calu-3 for this compound: CNc1ccc([N+](=O)[O-])cc1-n1cnc(-c2ccc(C(F)(F)F)cc2)c1
104

Form field - read-out: cell viability; system: Calu-3; submitted item: Cc1c(-c2cnccn2)ssc1=S
94

Request - read-out cell viability | tested on Calu-3 | compound CN[C@@H](C)C(=O)N[C@H]1CCCC[C@H]2CC[C@@H](C(=O)N[C@@H](c3ccccc3)c3cn(CCCCc4ccc(CCCCn5cc([C@@H](NC(=O)[C@@H]6CC[C@@H]7CCCC[C@H](NC(=O)[C@H](C)NC)C(=O)N76)c6ccccc6)nn5)cc4)nn3)N2C1=O
103

Form field - read-out: cell viability; system: Calu-3; submitted item: NCCc1cc[nH]n1
97.2

Can you look up cell viability on Calu-3 for CC(C)N(CCCNC(=O)Nc1ccc(C(C)(C)C)cc1)C[C@H]1O[C@@H](n2ccc3c(N)ncnc32)[C@H](O)[C@@H]1O ?
96.3

Form field: cell viability recorded for CC(=O)N(CC(O)CN(C(C)=O)c1c(I)c(C(=O)NCC(O)CO)c(I)c(C(=O)NCC(O)CO)c1I)c1c(I)c(C(=O)NCC(O)CO)c(I)c(C(=O)NCC(O)CO)c1I (stereo unspecified) with Calu-3 (enter value)
88.1

Give recorded cell viability with Calu-3 for the following compound: O=C(c1ccc(C(=O)N2CCC(N3CCCC3)CC2)c(Nc2ccccc2)c1)N1CCC(N2CCCC2)CC1
105

What value of cell viability on Calu-3 does c1ccc(Oc2cccnc2)cc1 have?
104

API: value(readout=cell viability, system=Calu-3) for record O=C(O)c1cc(=O)c2ccccc2o1
81.8

Entry O=C(O)Cc1cccnc1C(=O)O , system Calu-3: what cell viability was measured?
92.7

* * *

Test system: HepG2
Assay: cell viability relative to DMSO; higher = less toxic
Conditions: 72 h; 1000 nM
value.type: cell viability (%)
// units = %; emit number, no label

Requested read-out: cell viability. Entry: C[C@H](CCC(=O)NCCS(=O)(=O)O)[C@H]1CC[C@H]2[C@@H]3[C@@H](O)C[C@@H]4C[C@H](O)CC[C@]4(C)[C@H]3CC[C@]12C [ursodeoxycholyltaurine]
97.7

Which cell viability is listed for O=C(Nc1cc(C(F)(F)F)ccc1O)Nc1cc(C(F)(F)F)ccc1O [NS-1643] ?
94.7

Data request, read-out cell viability, for CC(=O)O[C@]1(C(C)=O)CC[C@H]2[C@@H]3C=C(C)C4=CC(=O)CC[C@@H]4[C@H]3CC[C@@]21C [nomegestrol-acetate]
106

// query cell viability value for entry COc1cc2nc(N3CCCN(C)CC3)nc(NC3CCN(Cc4ccccc4)CC3)c2cc1OC
67.5

// query cell viability value for entry COc1ccc(-c2cc(=O)c3c(OC)c(OC)c(OC)c(OC)c3o2)cc1OC [nobiletin]
83.2

Data request, read-out cell viability, for N[C@H](C(=O)O)c1ccc(O)cc1 [oxfenicine]
103

* * *

Tested on: HepG2
Test: cell viability relative to DMSO; higher = less toxic
Settings: 72 h; 10000 nM
Entries and their measured cell viability follow.
Numeric only. Scale: %

# example entries with known answers
1) CN1CCN(C(=O)c2cc3cc(Cl)ccc3[nH]2)CC1; 94.8
2) CNCCC(Oc1ccccc1OC)c1ccccc1 (stereo not given); 99
3) C[C@@H]1CN(Cc2ccc(F)cc2)[C@@H](C)CN1C(=O)c1cc2c(C(=O)C(=O)N(C)C)cn(C)c2cc1Cl; 104
4) CN1C[C@@H]2CN(c3ccc(-c4ccccc4)nn3)C[C@@H]2C1; 96
5) O[C@H]([C@H](O)[C@@H]1CO1)[C@H]1CO1 [dianhydrogalactitol]; 91.1
6) C=CC1=C(C)c2cc3[nH]c(cc4nc(cc5[nH]c(cc1n2)c(C)c5CCC(=O)O)C(CCC(=O)O)=C4C)c(C)c3C=C; 84.6
7) CN1C(=O)CCS(=O)(=O)C1c1ccc(Cl)cc1 (stereo not given); 103
8) C/C(O)=C(\C#N)C(=O)Nc1cc(Br)ccc1Br; 101
9) Nc1c(CC(=O)O)cccc1C(=O)c1ccc(Br)cc1; 104

Fill in: cell viability of CN(C)c1cccc(Oc2cnc(Nc3cccc(O)c3)nc2)c1 is ___
99.9
